Test system: polyclonal antibody of the thiamethoxam immunoassay
assay.procedure: Cross reactivity of the thiamethoxam immunoassay (competitive enzyme immunoassay in antibody-coated tubes)
Assay type: binding
Set-up: key: NR, non-reactive
measurement.setup: test substances in 1% methanol/water, 1000 to 0.01 ng/ml
assay.metric: Percent Reactivity Relative to Thiamethoxam

compound: FC(F)(F)C(=NOCC1OCCO1)c1ccc(Cl)cc1
target.of.assay: polyclonal antibody of the thiamethoxam immunoassay
result: NR

compound: COC(=O)NC(=S)Nc1ccccc1NC(=S)NC(=O)OC [Thiophanate-methyl]
target.of.assay: polyclonal antibody of the thiamethoxam immunoassay
result: NR

compound: CN/C(=N\[N+](=O)[O-])NCc1cnc(Cl)s1
target.of.assay: polyclonal antibody of the thiamethoxam immunoassay
result: <1.0%

compound: O=C1C2CC=CCC2C(=O)N1SC(Cl)(Cl)Cl (stereo not drawn)
target.of.assay: polyclonal antibody of the thiamethoxam immunoassay
result: NR

compound: CCOP(=S)(OCC)Oc1nc(Cl)c(Cl)cc1Cl
target.of.assay: polyclonal antibody of the thiamethoxam immunoassay
result: NR

Now look at this entry.
**Query** // returns reported Percent Reactivity Relative to Thiamethoxam for input N#CSCSc1nc2ccccc2s1
**Result** NR
